B1: library; a variant is named by its letters at N, in order (parent)
chain: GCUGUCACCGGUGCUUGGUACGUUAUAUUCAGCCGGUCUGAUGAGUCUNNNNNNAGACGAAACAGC

# Variants of: B1
# experiment.summary: FACS-Seq fitted mean relative fluorescence mCherry/BFP without ligand (log10 relative fluorescence); HEK293T overexpressing SLC46A1; higher = higher reporter protein expression
# condition.summary: without (6R,S)-folinic acid; ligand present: no
Given measured FACS-Seq fitted mean (log10), output Y if it is greater than or equal to 0.4 and N if not.

Please review the following examples before continuing.
GAUAGG N
AAGAUC Y
UAGCAU N
AGGCAC N
UAAGCU N
UGAUGU N
GGUUGA N
UAAGUG Y
CAUGUU N
AACGCU N

-- ask Decide: is the reported value of FACS-Seq fitted mean (log10) for AUGACU equal to or greater than 0.4?
-- reply N

-- ask Another: CCUUAU
-- reply N

-- ask And what about the variant CUAUUU ?
-- reply N

-- ask For GUGGGC then?
-- reply Y

-- ask Again, but for GGAGGU
-- reply Y
